Measured values drawn from ChEMBL document CHEMBL4011658 for this set.

- method_summary: Selectivity index, ratio of cytotoxicity against human SK-MEL cells to IC50 for Cryptococcus neoformans ATCC 90113
- Assay type: toxicity, cell-based
- condition_context: read-out: Selectivity Index
quantity_name: selectivity ratio

CC(C)(C)OC(=O)N[C@@H](Cc1c[nH]c(-c2ccccc2)n1)C(=O)N[C@@H](Cc1c[nH]c2ccccc12)C(=O)N[C@@H](Cc1c[nH]c(-c2ccccc2)n1)C(=O)NCc1ccccc1
> 7.1
COC(=O)[C@H](Cc1c[nH]c(-c2ccccc2)n1)NC(=O)[C@H](Cc1c[nH]c2ccccc12)NC(=O)[C@H](Cc1c[nH]c(-c2ccccc2)n1)NC(=O)OC(C)(C)C
> 1.1

Just so you know, measured selectivity ratio for COc1ccc(-c2nc(C[C@H](NC(=O)[C@H](Cc3c[nH]c4ccccc34)NC(=O)[C@@H](N)Cc3c[nH]c(-c4ccc(OC)cc4)n3)C(=O)NCc3ccccc3)c[nH]2)cc1 came out at > 1.4

###

Each entry below carries its recorded selectivity ratio.
- method_summary: Selectivity index, ratio of cytotoxicity against human SK-MEL cells to IC50 for Staphylococcus aureus ATCC 29213
- Assay type: toxicity, cell-based
- condition_context: read-out: Selectivity Index

CC(C)(C)c1ccc(-c2nc(C[C@H](NC(=O)[C@H](Cc3c[nH]c4ccccc34)NC(=O)[C@@H](N)Cc3c[nH]c(-c4ccc(C(C)(C)C)cc4)n3)C(=O)NCc3ccccc3)c[nH]2)cc1
> 2.68

Just so you know, measured selectivity ratio for CC(C)(C)OC(=O)N[C@@H](Cc1c[nH]c(-c2ccccc2)n1)C(=O)N[C@@H](Cc1c[nH]c2ccccc12)C(=O)N[C@@H](Cc1c[nH]c(-c2ccccc2)n1)C(=O)NCc1ccccc1 came out at > 1.3

Just so you know, measured selectivity ratio for COC(=O)[C@H](Cc1c[nH]c(-c2ccc(-c3ccccc3)cc2)n1)NC(=O)[C@H](Cc1c[nH]c2ccccc12)NC(=O)[C@@H](N)Cc1c[nH]c(-c2ccc(-c3ccccc3)cc2)n1 came out at > 3.9

Just so you know, measured selectivity ratio for COC(=O)[C@H](Cc1c[nH]c(-c2ccc(C(C)(C)C)cc2)n1)NC(=O)[C@H](Cc1c[nH]c2ccccc12)NC(=O)[C@@H](N)Cc1c[nH]c(-c2ccc(C(C)(C)C)cc2)n1 came out at > 2.3

###

- method_summary: Selectivity index, ratio of cytotoxicity against African green monkey VERO cells to IC50 for Cryptococcus neoformans ATCC 90113
- Format: toxicity, cell-based
- condition_context: read-out: Selectivity Index
Residues, ends and D or L forms follow the SMILES beside them. *: point of attachment. NHBn = c1ccc(CN*)cc1
Each entry below carries its recorded selectivity ratio.

Solved cases (2 shown):
COC(=O)[C@H](Cc1c[nH]c(-c2ccc(C(C)(C)C)cc2)n1)NC(=O)[C@H](Cc1c[nH]c2ccccc12)NC(=O)[C@H](Cc1c[nH]c(-c2ccc(C(C)(C)C)cc2)n1)NC(=O)OC(C)(C)C
> 7.9
N[C@@H](Cc1cnc[nH]1)C(=O)N[C@@H](Cc1c[nH]c2ccccc12)C(=O)N[C@@H](Cc1cnc[nH]1)C(=O)NCc1ccccc1 (H-His-Trp-His-NHBn)
> 1.2

// next entry
Just so you know, measured selectivity ratio for COC(=O)[C@H](Cc1c[nH]c(-c2ccccc2)n1)NC(=O)[C@H](Cc1c[nH]c2ccccc12)NC(=O)[C@@H](N)Cc1c[nH]c(-c2ccccc2)n1 came out at > 2.7

###

- method_summary: Selectivity index, ratio of cytotoxicity against human BT549 cells to IC50 for Staphylococcus aureus ATCC 29213
- Type: toxicity, cell-based
- condition_context: read-out: Selectivity Index
quantity_name: selectivity ratio

Solved cases (3 shown):
CC(C)(C)OC(=O)N[C@@H](Cc1c[nH]c(-c2ccccc2)n1)C(=O)N[C@@H](Cc1c[nH]c2ccccc12)C(=O)N[C@@H](Cc1c[nH]c(-c2ccccc2)n1)C(=O)NCc1ccccc1
> 1.3
COC(=O)[C@H](Cc1c[nH]c(-c2ccc(-c3ccccc3)cc2)n1)NC(=O)[C@H](Cc1c[nH]c2ccccc12)NC(=O)[C@@H](N)Cc1c[nH]c(-c2ccc(-c3ccccc3)cc2)n1
> 3.9
CC(C)(C)c1ccc(-c2nc(C[C@H](NC(=O)[C@H](Cc3c[nH]c4ccccc34)NC(=O)[C@@H](N)Cc3c[nH]c(-c4ccc(C(C)(C)C)cc4)n3)C(=O)NCc3ccccc3)c[nH]2)cc1
> 2.68

// next entry
Just so you know, measured selectivity ratio for COC(=O)[C@H](Cc1c[nH]c(-c2ccc(C(C)(C)C)cc2)n1)NC(=O)[C@H](Cc1c[nH]c2ccccc12)NC(=O)[C@@H](N)Cc1c[nH]c(-c2ccc(C(C)(C)C)cc2)n1 came out at > 2.3

###

- Tested on: SK-OV-3
- method_summary: Cytotoxicity against human SKOV3 cells assessed as reduction in cell viability after 48 hrs by neutral red uptake assay
- Format: cell-based
- condition_context: sk-ov-3, 48 h
Residues, ends and D or L forms follow the SMILES beside them. *: point of attachment. Boc = CC(C)(C)OC(=O)*
Each entry below carries its recorded Activity.

Solved cases (2 shown):
COC(=O)[C@H](Cc1c[nH]cn1)NC(=O)[C@H](Cc1c[nH]c2ccccc12)NC(=O)[C@H](Cc1c[nH]cn1)NC(=O)OC(C)(C)C (Boc-His-Trp-His-OMe)
> 10 µg/mL
CC(C)(C)c1ccc(-c2nc(C[C@H](NC(=O)[C@H](Cc3c[nH]c4ccccc34)NC(=O)[C@@H](N)Cc3c[nH]c(-c4ccc(C(C)(C)C)cc4)n3)C(=O)NCc3ccccc3)c[nH]2)cc1
> 10 µg/mL

// next entry
Given the molecule COc1ccc(-c2nc(C[C@H](NC(=O)[C@H](Cc3c[nH]c4ccccc34)NC(=O)[C@@H](N)Cc3c[nH]c(-c4ccc(OC)cc4)n3)C(=O)NCc3ccccc3)c[nH]2)cc1 and test system SK-OV-3, the measured Activity is > 10 µg/mL

###

- Tested on: Vero
- method_summary: Cytotoxicity against African green monkey Vero cells assessed as reduction in cell viability after 48 hrs by neutral red uptake assay
- Format: cell-based
- condition_context: chlorocebus sabaeus
Residues, ends and D or L forms follow the SMILES beside them. *: point of attachment. Boc = CC(C)(C)OC(=O)*
quantity_name: Activity

CC(C)(C)OC(=O)N[C@@H](Cc1c[nH]c(-c2ccccc2)n1)C(=O)N[C@@H](Cc1c[nH]c2ccccc12)C(=O)N[C@@H](Cc1c[nH]c(-c2ccccc2)n1)C(=O)NCc1ccccc1
> 10 µg/mL
COC(=O)[C@H](Cc1c[nH]cn1)NC(=O)[C@H](Cc1c[nH]c2ccccc12)NC(=O)[C@H](Cc1c[nH]cn1)NC(=O)OC(C)(C)C (Boc-His-Trp-His-OMe)
> 10 µg/mL

Just so you know, measured Activity for COC(=O)[C@H](Cc1c[nH]c(-c2ccccc2)n1)NC(=O)[C@H](Cc1c[nH]c2ccccc12)NC(=O)[C@@H](N)Cc1c[nH]c(-c2ccccc2)n1 came out at > 10 µg/mL

###

- method_summary: Selectivity index, ratio of cytotoxicity against human SKOV3 cells to IC50 for Staphylococcus aureus ATCC 29213
- Type: toxicity, cell-based
- condition_context: read-out: Selectivity Index
Each entry below carries its recorded selectivity ratio.

CC(C)(C)OC(=O)N[C@@H](Cc1c[nH]c(-c2ccccc2)n1)C(=O)N[C@@H](Cc1c[nH]c2ccccc12)C(=O)N[C@@H](Cc1c[nH]c(-c2ccccc2)n1)C(=O)NCc1ccccc1
> 1.3
COC(=O)[C@H](Cc1c[nH]c(-c2ccc(-c3ccccc3)cc2)n1)NC(=O)[C@H](Cc1c[nH]c2ccccc12)NC(=O)[C@@H](N)Cc1c[nH]c(-c2ccc(-c3ccccc3)cc2)n1
> 3.9
COC(=O)[C@H](Cc1c[nH]c(-c2ccc(C(C)(C)C)cc2)n1)NC(=O)[C@H](Cc1c[nH]c2ccccc12)NC(=O)[C@@H](N)Cc1c[nH]c(-c2ccc(C(C)(C)C)cc2)n1
> 2.3

// next entry
Just so you know, measured selectivity ratio for CC(C)(C)c1ccc(-c2nc(C[C@H](NC(=O)[C@H](Cc3c[nH]c4ccccc34)NC(=O)[C@@H](N)Cc3c[nH]c(-c4ccc(C(C)(C)C)cc4)n3)C(=O)NCc3ccccc3)c[nH]2)cc1 came out at > 2.68

###

- method_summary: Selectivity index, ratio of cytotoxicity against pig LLC-PK1 cells to IC50 for Cryptococcus neoformans ATCC 90113
- Assay type: toxicity, cell-based
- condition_context: read-out: Selectivity Index
Residues, ends and D or L forms follow the SMILES beside them. *: point of attachment. NHBn = c1ccc(CN*)cc1
quantity_name: selectivity ratio

Solved cases (5 shown):
COC(=O)[C@H](Cc1c[nH]c(-c2ccc(C(C)(C)C)cc2)n1)NC(=O)[C@H](Cc1c[nH]c2ccccc12)NC(=O)[C@H](Cc1c[nH]c(-c2ccc(C(C)(C)C)cc2)n1)NC(=O)OC(C)(C)C
> 7.9
COC(=O)[C@H](Cc1c[nH]c(-c2ccccc2)n1)NC(=O)[C@H](Cc1c[nH]c2ccccc12)NC(=O)[C@H](Cc1c[nH]c(-c2ccccc2)n1)NC(=O)OC(C)(C)C
> 1.1
COc1ccc(-c2nc(C[C@H](NC(=O)[C@H](Cc3c[nH]c4ccccc34)NC(=O)[C@@H](N)Cc3c[nH]c(-c4ccc(OC)cc4)n3)C(=O)NCc3ccccc3)c[nH]2)cc1
> 1.4
N[C@@H](Cc1cnc[nH]1)C(=O)N[C@@H](Cc1c[nH]c2ccccc12)C(=O)N[C@@H](Cc1cnc[nH]1)C(=O)NCc1ccccc1 (H-His-Trp-His-NHBn)
> 1.2
CC(C)(C)OC(=O)N[C@@H](Cc1c[nH]c(-c2ccccc2)n1)C(=O)N[C@@H](Cc1c[nH]c2ccccc12)C(=O)N[C@@H](Cc1c[nH]c(-c2ccccc2)n1)C(=O)NCc1ccccc1
> 7.1

Just so you know, measured selectivity ratio for COC(=O)[C@H](Cc1c[nH]cn1)NC(=O)[C@H](Cc1c[nH]c2ccccc12)NC(=O)[C@@H](N)Cc1c[nH]cn1 (H-His-Trp-His-OMe) came out at > 1

Just so you know, measured selectivity ratio for Cc1ccc(-c2nc(C[C@H](NC(=O)[C@H](Cc3c[nH]c4ccccc34)NC(=O)[C@@H](N)Cc3c[nH]c(-c4ccc(C)cc4)n3)C(=O)NCc3ccccc3)c[nH]2)cc1 came out at > 1.8

Just so you know, measured selectivity ratio for COC(=O)[C@H](Cc1c[nH]c(-c2ccc(C(C)(C)C)cc2)n1)NC(=O)[C@H](Cc1c[nH]c2ccccc12)NC(=O)[C@@H](N)Cc1c[nH]c(-c2ccc(C(C)(C)C)cc2)n1 came out at > 12
